Molecular target: HPK1 (Homo sapiens)
Construct: purchased SignalChem M23-11G
Sequence (Q92918 1-346 limits assumed): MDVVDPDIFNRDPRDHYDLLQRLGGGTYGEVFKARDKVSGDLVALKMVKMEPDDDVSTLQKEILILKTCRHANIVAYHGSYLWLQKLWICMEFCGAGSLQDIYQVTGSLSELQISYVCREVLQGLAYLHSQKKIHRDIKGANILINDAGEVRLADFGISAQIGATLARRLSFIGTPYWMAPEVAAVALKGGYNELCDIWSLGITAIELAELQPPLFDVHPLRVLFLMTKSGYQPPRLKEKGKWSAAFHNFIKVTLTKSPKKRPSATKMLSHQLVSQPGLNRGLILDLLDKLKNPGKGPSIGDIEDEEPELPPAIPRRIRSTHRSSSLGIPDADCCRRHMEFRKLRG
Assay: HPK1 Kinase Binding Assay
Details: LanthaScreen tracer 222, one hour incubation at 25 °C
Experimental: A stock solution of 1 mM test compound was prepared in DMSO. The compound plate was prepared by 3-fold and 11-point serial dilutions. 0.1 µL of the compound in DMSO was transferred from the compound plate to the white 384 well polystyrene plates. The assay buffer contained 50 mM HEPES, pH 7.5, 0.01% Tween-20, 5 mM MgCl2, 0.01% BSA, and 5 mM DTT. […] After one hour incubation at 25 °C, the plates were read on a PHERAstar FS plate reader (BMG Labtech). Ki values were determined.
Measurement Label: Ki

Some compounds with known Ki results, for comparison:
COc1cccc(F)c1-c1nccc(C(=O)Nc2ccc(-c3cnccc3C#N)cc2N2CCO[C@H](CO)C2)n1 [Example 100]: < 100 nM
COc1cccc(F)c1-c1nccc(C(=O)Nc2ccc(-c3ccncc3C#N)cc2N2C[C@@H](O)C[C@H]2CO)n1 [Example 49]: < 100 nM
COc1cccc(F)c1-c1nccc(C(=O)Nc2ccc(S(C)(=O)=O)cc2N2C[C@@H](N)C[C@H]2CO)n1 [Example 85]: < 100 nM
COc1cccc(F)c1-c1nccc(C(=O)Nc2ccc(-c3cnccc3C#N)cc2N2CCO[C@H](CC#N)C2)n1 [Example 102]: < 100 nM

Q. // fetch HPK1 (Homo sapiens) Ki for [2H]C([2H])([2H])Oc1ccc(F)c(F)c1-c1nccc(C(=O)Nc2ccc(-c3cnccc3C#N)cc2N2C[C@@H](N)C[C@H]2CO)n1 [Example 76]
A. < 100 nM

Q. Notebook: pull reported Ki for HPK1 (Homo sapiens), entry COc1cccc(F)c1-c1nccc(C(=O)Nc2cc(F)ccc2N2CCCC2c2ccccn2)n1 (stereo not drawn) [Example 8]
A. 500 to 5000 nM

Q. Which Ki is reported with HPK1 (Homo sapiens) for this entry: COc1cccc(F)c1-c1nccc(C(=O)Nc2ccccc2C2CCCC(N)C2)n1 (stereo not drawn) [Example 80] ?
A. < 100 nM

Q. Write down the reported Ki of COc1cccc(F)c1-c1nccc(C(=O)Nc2cc(F)cc(-c3cnn(C)c3)c2N2C[C@H]3C[C@@H]2CN3)n1 [Example 16] , test system: HPK1 (Homo sapiens).
A. < 100 nM

Q. // map COc1cccc(F)c1-c1nccc(C(=O)Nc2cccc(C#N)c2N2C[C@H]3C[C@@H]2CN3)n1 [Example 14] to recorded Ki (system: HPK1 (Homo sapiens))
A. < 100 nM

Q. Record lookup: for HPK1 (Homo sapiens), what Ki belongs to COc1cccc(F)c1-c1nccc(C(=O)Nc2ccc(-c3cnccc3C#N)cc2N2CC[C@@H]2CN(C)C)n1 [Example 107] ?
A. < 100 nM

Q. Provide the documented Ki with HPK1 (Homo sapiens) as the system for COc1cccc(F)c1-c1nccc(C(=O)Nc2ccc(C(C)C)cc2N2C[C@@H](N)C[C@H]2CO)n1 [Example 48]
A. < 100 nM

Numbers sourced from patent EP3755703B1.
